Biological target: T1, SHANK1, Q9Y566
T1 sequence (Q9Y566 658-767, limits assumed, looked up): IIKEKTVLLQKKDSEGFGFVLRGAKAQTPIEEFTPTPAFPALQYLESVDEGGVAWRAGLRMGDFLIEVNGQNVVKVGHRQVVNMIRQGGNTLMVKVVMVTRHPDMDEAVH
Test: holdup assay
Set-up: key: below the threshold = too weak to quantify, mostly under pKd 3.1 to 4
Conditions: plain residues with an end cap or a label only (N-terminal biotin on a linker: ado-ado)

>  <binder>
VKPQVSESKL [ACOT8, O14734]

>  <pKd>
4.01

$$$$
>  <binder>
LPAHHNATRL [SLC34A1, Q06495;Q06495-1]

>  <pKd>
5.39

$$$$
>  <binder>
EVNETDDTKM [KCNJ1, P48048]

>  <pKd>
3.73

$$$$
>  <binder>
TSQESEDTYL [TBC1D10A, Q9BXI6]

>  <pKd>
4.99

$$$$
>  <binder>
PRAEAEDSFL [PDGFRB, P09619]

>  <pKd>
3.51

$$$$
>  <binder>
TKGPRGPTRV [SAPCD1, Q5SSQ6]

>  <pKd>
4.26

$$$$
>  <binder>
QGLAERISVL [PRKD2, Q9BZL6]

>  <pKd>
4.23

$$$$
>  <binder>
EVEEFPETSV [TRPV3, Q8NET8]

>  <pKd>
3.94

$$$$
>  <binder>
GNSVLKSTQF [SLC22A12, Q96S37]

>  <pKd>
4.96

$$$$
